Each recorded value in this set is attributed to ChEMBL document CHEMBL3988442.

Target: Proteasome subunit beta (Trypanosoma cruzi) (UniProt O96673)
Sequence (whole entry): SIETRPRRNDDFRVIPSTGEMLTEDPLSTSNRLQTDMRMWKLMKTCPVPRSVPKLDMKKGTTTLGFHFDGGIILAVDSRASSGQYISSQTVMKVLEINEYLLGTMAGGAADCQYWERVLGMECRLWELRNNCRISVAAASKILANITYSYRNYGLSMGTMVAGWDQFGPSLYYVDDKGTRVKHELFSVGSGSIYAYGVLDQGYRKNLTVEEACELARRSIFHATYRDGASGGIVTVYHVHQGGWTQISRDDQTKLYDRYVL
Experiment: Trypanosoma cruzi proteasome chymotrypsin-like activity (TcProtChymo) assay. Further: in the data most compounds retested in dose-response had high values.
Assay type: functional
Set-up: scale not given: direction of the effect not stated beside the values
Settings: 9.37 µM
Percent Effect for assorted compounds
Phrase the answer as number then unit, nothing more needed.

Worked set:
compound: COc1ccccc1C(=O)N1CCCC1Cn1cc(C)cn1 (configuration not stated)
measure: Percent Effect
assay_result: 4.68%
//
compound: O=C(N1CCCCC1)N1CCN(CC(O)c2ccc(F)cc2)CC1 (configuration not stated)
measure: Percent Effect
assay_result: 4.84%
//
compound: CC(=O)N(Cc1ncc(C(C)C)o1)C1CCN(Cc2ncc[nH]2)C1 (configuration not stated)
measure: Percent Effect
assay_result: 5.21%
//
compound: c1coc(CN2Cc3nccn3CC(Cn3cncn3)C2)c1 (configuration not stated)
measure: Percent Effect
assay_result: 6.25%
//
compound: CN(Cc1ccsc1)C(=O)Nc1cccnc1N1CCCC1
measure: Percent Effect
assay_result: 2.62%
//
compound: CCOCCC(=O)Nc1cccc(Oc2ccccn2)c1
measure: Percent Effect
assay_result: 0.288%
//
compound: Cc1ncsc1CN1C[C@@H]2COC[C@]2(C(=O)NCC2CC2)C1
measure: Percent Effect
assay_result: -1.15%
//
compound: CN(C)S(=O)(=O)N1CCC(Oc2cnccn2)CC1
measure: Percent Effect
assay_result: 20.2%
//
compound: CCN(C(=O)CS(=O)(=O)Cc1cc(Cl)c2c(c1)OCCCO2)C1CC1
measure: Percent Effect
assay_result: 7.62%
//
compound: O=C(Nc1cnn(CCN2CCOCC2)c1)c1ccccc1O
measure: Percent Effect
assay_result: 16.9%

Record for Cc1cnn(CCC(=O)N2CCCN(c3cccnn3)CC2)c1 under target or system Proteasome subunit beta (Trypanosoma cruzi) (UniProt O96673): Percent Effect reported as 13.2%

Record for COCCN1C(=O)C[C@H]2[C@H]1CCN2Cc1ccc(OC)cc1 under target or system Proteasome subunit beta (Trypanosoma cruzi) (UniProt O96673): Percent Effect reported as 13.5%

* * *

system: Trypanosoma cruzi; assay: Trypanosoma cruzi phosphomannomutase and mannose-1-phosphate guanylyltransferase assay; assay type: functional; parameters: scale not given: direction of the effect not stated beside the values; details: 10 µM
Percent Effect for assorted compounds
Phrase the answer as number then unit, nothing more needed.

# compound NC(=O)NCC1CCCCN1C(=O)c1cccc(C(F)(F)F)c1 (centres undefined) ; its Percent Effect = 4.95%

# compound O=C(c1ccccc1OCC1CC1)N1CCCC(n2ccnc2)C1 (centres undefined) ; its Percent Effect = 3.18%

# compound COc1ccc(C(CO)NC(=O)Nc2cccnc2)cc1 (centres undefined) ; its Percent Effect = -3.86%

# compound Fc1ccc(CN2CCCC(c3nnc(-c4cnccn4)o3)C2)cc1F (centres undefined) ; its Percent Effect = -0.198%

# compound O=C(c1cc(=O)[nH]c(=O)[nH]1)N1CCCCC1c1nc2cc(F)ccc2[nH]1 (centres undefined) ; its Percent Effect = 1.07%

# compound CN(Cc1ccc(F)cc1)C(=O)Cn1nc(-c2ccc(F)cc2)oc1=O ; its Percent Effect = -7.3%

# compound CCOCC1CN(C(=O)c2cccn2C)Cc2cnn(CC3CC3)c21 (centres undefined) ; its Percent Effect = 0.69%

# compound Cc1cnc(C(=O)N2CCCC(n3ccnc3C)C2)cn1 (centres undefined) ; its Percent Effect = 8.5%

# compound C1CC(c2noc(C3CC3)n2)CN(Cc2noc(C3CC3)n2)C1 (centres undefined) ; its Percent Effect = -3.11%

# compound Cc1cc(CN2CCN(C(=O)Nc3cccnc3)CC2)on1 ; its Percent Effect = -2.63%

# compound COc1c(C)cnc(CN2CCCCC2Cn2nc(C)nc2C)c1C (centres undefined) ; its Percent Effect = 2.55%

# compound Cc1nnc(SCC(=O)N2CCC3(CC2)c2ccccc2CC3O)o1 (centres undefined) ; its Percent Effect = 6.79%

# compound CCn1cnnc1CNC(=O)c1ccc(Cl)cc1F ; its Percent Effect = 0.103%

# compound CCn1nc(C)cc1C(=O)Nc1cc(F)ccc1OCC1CCCO1 (centres undefined) ; its Percent Effect = 0.686%

* * *

Percent Effect for assorted compounds
molecular target: Sialic acid-binding Ig-like lectin 9 (Homo sapiens) (UniProt Q9Y336); assay: Hs-Siglec9 ALPHAscreen SOP 20170721; set-up: scale not given: direction of the effect not stated beside the values; settings: 10 µM
Sequence (Q9Y336 whole entry): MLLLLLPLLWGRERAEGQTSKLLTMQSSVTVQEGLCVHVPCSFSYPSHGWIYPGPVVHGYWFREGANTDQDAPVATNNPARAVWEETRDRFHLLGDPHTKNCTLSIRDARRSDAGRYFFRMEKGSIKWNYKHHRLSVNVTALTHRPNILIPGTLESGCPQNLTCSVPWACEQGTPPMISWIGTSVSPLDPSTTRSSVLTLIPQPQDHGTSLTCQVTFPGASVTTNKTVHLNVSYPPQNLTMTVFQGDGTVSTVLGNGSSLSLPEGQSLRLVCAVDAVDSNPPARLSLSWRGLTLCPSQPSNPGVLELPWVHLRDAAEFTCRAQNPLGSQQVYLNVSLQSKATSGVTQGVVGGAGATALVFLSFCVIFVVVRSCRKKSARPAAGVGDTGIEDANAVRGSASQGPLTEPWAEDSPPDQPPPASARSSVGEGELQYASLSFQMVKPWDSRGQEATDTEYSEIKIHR
Respond numerically; units are % and should not be typed.

Worked set:
compound: OC1CCN(Cc2c(C3CCCNC3)[nH]c3ncccc23)CC1 (configuration not stated)
measurement_target: Sialic acid-binding Ig-like lectin 9 (Homo sapiens) (UniProt Q9Y336)
measure: Percent Effect
assay_result: 5.12
//
compound: COc1cc(CNC(=O)CNc2cc(Cl)ccc2OC)ccn1
measurement_target: Sialic acid-binding Ig-like lectin 9 (Homo sapiens) (UniProt Q9Y336)
measure: Percent Effect
assay_result: 2.86
//
compound: Cc1nn(CC(=O)N2CCCC2Cn2cccn2)c(C)c1Cl (configuration not stated)
measurement_target: Sialic acid-binding Ig-like lectin 9 (Homo sapiens) (UniProt Q9Y336)
measure: Percent Effect
assay_result: 8.29
//
compound: NC(=O)CN1CCC(NC(=O)c2ccn(-c3cccc(F)c3)n2)CC1
measurement_target: Sialic acid-binding Ig-like lectin 9 (Homo sapiens) (UniProt Q9Y336)
measure: Percent Effect
assay_result: -2.99
//
compound: O=C(CN1CCCC(Cn2cncn2)C1)NCc1ccco1 (configuration not stated)
measurement_target: Sialic acid-binding Ig-like lectin 9 (Homo sapiens) (UniProt Q9Y336)
measure: Percent Effect
assay_result: -5
//
compound: CS(=O)(=O)NC[C@H]1OC[C@@H]2CCN(Cc3ccc(F)cc3)C[C@@H]21
measurement_target: Sialic acid-binding Ig-like lectin 9 (Homo sapiens) (UniProt Q9Y336)
measure: Percent Effect
assay_result: -0.611

# compound Cc1csc(N2CCCN(Cc3noc(C)n3)CC2)n1 ; its Percent Effect = 0.549

# compound COCCOc1ccc(NC(=O)C2CCCN(C(N)=O)C2)cn1 (configuration not stated) ; its Percent Effect = 4.56

# compound Fc1ccc(-c2nnc(CN3CCCC3Cn3cncn3)o2)cc1 (configuration not stated) ; its Percent Effect = 9.41

# compound CCc1ncc(C(=O)N2CCCCC2Cn2cccn2)s1 (configuration not stated) ; its Percent Effect = -4.33

# compound COc1ccc(C(=O)N(Cc2cnn(C)c2)C(C)C)cc1Br ; its Percent Effect = 8.74

# compound Cc1ccc(CNCc2nnc3n2CCCC3C(F)(F)F)o1 (configuration not stated) ; its Percent Effect = -7.37

* * *

Percent Effect for assorted molecules
species: Homo sapiens; assay: To identify inhibition of the IFN signalling (Jak-Stat) pathway via expression of an eGFP reporter gene under the control of an IFN-stimulated response element (ISRE) containing MxA promoter.; format: functional; design: scale not given: direction of the effect not stated beside the values; conditions: 30 µM
Respond numerically; units are % and should not be typed.

Worked set:
molecule: Cc1cccc(NC(=O)Cn2ncc(SCC(N)=O)c(Cl)c2=O)c1C
Percent Effect, %: 17.6

molecule: O=C(Nc1cccc(OCc2cccc(F)c2)c1)C1COCCO1 (configuration not stated)
Percent Effect, %: 28

molecule: Cc1ncsc1C(=O)N1CCCN(Cc2cscn2)CC1
Percent Effect, %: -3.73

molecule: Cn1nnc2c1CCN(CC1CC1)C2COCc1ccccc1 (configuration not stated)
Percent Effect, %: -2.55

molecule: COCCn1ccc2cc(NC(C)=O)ccc21
Percent Effect, %: -6.07

Now for the molecule whose Percent Effect we want.
# molecule c1cnc(NCc2noc3c2CN(C2CCOCC2)CC3)nc1 ; its Percent Effect = -2.62

* * *

Molecular target: Tyrosyl-tRNA synthetase, putative (Trypanosoma cruzi (strain CL Brener))
Sequence (whole entry): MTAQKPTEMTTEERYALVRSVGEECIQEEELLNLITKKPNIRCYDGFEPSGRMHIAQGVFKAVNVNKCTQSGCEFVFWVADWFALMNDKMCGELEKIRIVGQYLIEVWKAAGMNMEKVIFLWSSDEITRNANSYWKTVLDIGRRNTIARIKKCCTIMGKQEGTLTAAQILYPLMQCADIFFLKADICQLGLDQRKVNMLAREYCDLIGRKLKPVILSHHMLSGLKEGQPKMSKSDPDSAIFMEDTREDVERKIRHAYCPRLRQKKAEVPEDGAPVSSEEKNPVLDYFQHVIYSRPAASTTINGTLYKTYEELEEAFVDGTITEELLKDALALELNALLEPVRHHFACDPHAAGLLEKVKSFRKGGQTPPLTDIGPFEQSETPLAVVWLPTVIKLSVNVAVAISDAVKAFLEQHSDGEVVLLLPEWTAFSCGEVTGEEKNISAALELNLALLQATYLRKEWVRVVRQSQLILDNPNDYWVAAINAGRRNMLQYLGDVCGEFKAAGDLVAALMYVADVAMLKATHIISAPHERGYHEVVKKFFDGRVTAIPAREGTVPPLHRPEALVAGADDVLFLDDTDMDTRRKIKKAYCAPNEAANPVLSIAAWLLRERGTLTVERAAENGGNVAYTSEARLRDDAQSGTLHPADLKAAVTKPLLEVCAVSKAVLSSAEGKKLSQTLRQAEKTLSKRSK
Assay: Trypanosoma cruzi tyrosyl tRNA synthetase (TcYRS) _High Tyrosine SOP; further: in the data most compounds retested in dose-response had high values
Assay type: functional
Design: scale not given: direction of the effect not stated beside the values
Details: 30 µM
measure: Percent Effect (%)
Respond numerically; units are % and should not be typed.

Worked set:
molecule: CC(C)CC(=O)N1CCCn2cnc(CN3CCCC3=O)c2C1
measure: Percent Effect
assay_result: 2.15
//
molecule: Cc1nc2c(c(N3CC=CC3)n1)CCN(Cc1ccoc1)CC2
measure: Percent Effect
assay_result: 3.23
//
molecule: Cc1nnc(N2CCOC(Cn3cccn3)C2)c(C#N)c1C (centres undefined)
measure: Percent Effect
assay_result: 2.45

# molecule Cc1nc2n(n1)CC(NCc1cc(Cl)c3c(c1)OCCCO3)CC2 (centres undefined) ; its Percent Effect = 6.4

# molecule CN(C)CCOCC1CN(C(=O)[C@H]2CCCO2)Cc2ccnn2C1 (some centres undefined) ; its Percent Effect = 1.04

# molecule Cc1cc(C)c(CNC(=O)NCC2CCCN2C)c(=O)[nH]1 (centres undefined) ; its Percent Effect = -4.41

# molecule COc1ccc(C(=O)N2CCCC(C)C2)cc1F (centres undefined) ; its Percent Effect = 4.43

# molecule NS(=O)(=O)N1CCc2ccc(NC(=O)Cc3ccc(F)cc3)cc21 ; its Percent Effect = -3.23

# molecule COCCNS(=O)(=O)c1cccc2c1CN(C(=O)c1ccccc1)CC2 ; its Percent Effect = -4.21

# molecule OC(CN1CCN(Cc2ccc(F)c(F)c2)CC1)C1CC1 (centres undefined) ; its Percent Effect = 6.45

# molecule CCOCCOC(C)C(=O)NCc1cn2cc(Br)ccc2n1 (centres undefined) ; its Percent Effect = 5.32

# molecule CCN(CCn1cccn1)Cc1nc(-c2ccccc2F)oc1C ; its Percent Effect = 1.05

# molecule Cc1noc([C@H]2C[C@@H]3CCN(C(=O)N(C)C)C[C@H]3O2)n1 ; its Percent Effect = -1.08

# molecule CN(C(=O)Cn1nc(-c2ccc(F)cc2)ccc1=O)C1CCS(=O)(=O)C1 (centres undefined) ; its Percent Effect = 3.19
